Cited source for all entries: patent US20150231147A1

experiment: Plasma noribogaine pharmacokinetics, ascending single oral dose, healthy volunteers; format: in vivo, human; details: human; healthy male volunteers, single oral 3 mg noribogaine, plasma, mean (n = 6)
measurement_name: Cmax

INSERT INTO assay_data (mol_smiles, measurement_name, endpoint_value) VALUES
  ('CC[C@H]1CC2C[C@H]3c4[nH]c5ccc(O)cc5c4CCN(C2)C13', 'Cmax', '5.2 ng/mL');
